assay: BET inhibitor-based combinations targeting novel dependencies in MECOM-rearranged (r) AML: AML-194 cell line (AID 2202237; note: potency is the fitted concentration of half-maximal effect; nearly all actives have a fitted effect of over 40% in size); settings: AML-194 (MECOM-r AML) viability, CellTiter-Glo, 48 h; series mostly up to 46 µM
Results filed as inconclusive are left out. Active and inactive are the calls of the source. Calls come from the whole dose curve; as a rule, active = well fitted inhibition curve with a large enough effect; inconclusive = small, poorly fitted or top-dose-only effect; inactive = flat fitted curve, though single readings scatter.
For each record, write down the corresponding Potency.

Please fill in: Potency reported for O=C(CCCCCCC(=O)N/N=C/c1ccc(N(c2ccccc2)c2ccccc2)cc1)NO = 7.42 µM (active)

Please fill in: Potency reported for CCCCOc1ccc(CC(=O)NO)cc1 = 23.5 µM (active)

Please fill in: Potency reported for COc1cc(C(C)C)c2c(c1)S(=O)(=O)N(COc1cc(=O)n3cccc(OCCN4CCCCC4)c3n1)C2=O = 23.5 µM (active)

Please fill in: Potency reported for CCNC(=O)Nc1ccc(Oc2ncnc(N)c2/C=N/OC)cc1Cl = 23.5 µM (active)

Please fill in: Potency reported for CN1C/C=C/CCOc2cccc(c2)-c2ccnc(n2)Nc2cccc(c2)C1 = 0.372 µM (active)

Please fill in: Potency reported for CCCC1(CCC)CCC2(CCN(CCCN(CC)CC)C2)CC1 = 9.34 µM (active)

====

For each record, write down the corresponding viability.
experiment: BET inhibitor-based combinations targeting novel dependencies in MECOM-rearranged (r) AML: SET-2 cell line (AID 2202231); settings: SET-2 AML cells viability, CellTiter-Glo luminescence, 48 h; active compounds read low, concentration not given here;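 note: plate controls were DMSO treated cells for no effect and wells without cells for full effect; nearly all actives have a fitted effect of over 35% in size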
Records with an inconclusive call do not appear.
Unit % implied. Number only.

Please fill in: viability reported for COC(=O)[C@H](CCCN=C(N)N)NS(=O)(=O)c1ccc(C)cc1 = 112

Please fill in: viability reported for CNC(=O)c1c(C)oc2cc(Oc3ncnc4cc(OC)c(OC)cc34)ccc12 = 116

Please fill in: viability reported for CC(C)[C@H]1C(=O)N[C@@H](CCCN=C(N)N)C(=O)NCC(=O)N[C@@H](CC(=O)O)C(=O)N[C@H](Cc2ccccc2)C(=O)N1C = 124

Please fill in: viability reported for Cc1cc(C)cc(Oc2ccc(CNC(=O)[C@H](C)N)cc2C)c1 = 109

Please fill in: viability reported for O=C(Nc1ccccc1)Nc1ccc(-c2ccc(C(=O)[C@@H]3CCC[C@H]3C(=O)O)cc2)cc1 = 105

====

target: Aldehyde dehydrogenase 1A1 (Homo sapiens); test: qHTS for Inhibitors of the Aldehyde Dehydrogenase Family (ALDH1A1) Confirmatory screens (AID 2061316); details: ALDH inhibition qHTS; series mostly up to 47.3 µM; note: nearly all actives have a fitted effect of over 65% in size
Records with an inconclusive call do not appear. The source made the active and inactive calls. Calls follow the shape of the dose curve; as a rule, active = well fitted inhibition curve with a large enough effect; inconclusive = small, poorly fitted or top-dose-only effect; inactive = no such curve, though single readings can be large or run the other way.
Could you please pick one outcome from this set? active, inactive

Asked: Assay result, entry Cc1ccc(S(=O)(=O)Nc2cnccc2C(=O)Nc2nc(-c3ccco3)cs2)cc1 — outcome?
Given back: active

Asked: Assay result, entry O=C(Nc1cccc(-c2nn3c(=O)cc(N4CCNCC4)nc3s2)c1)c1ccncc1 — outcome?
Given back: active

Asked: Assay result, entry Cc1ccc(CN(C)c2ncnc3ccc(-c4ccc(CO)o4)cc23)o1 — outcome?
Given back: active

Asked: Assay result, entry Cc1c(C(=O)OCC2CC2)[nH]c2c1C(=O)CC(c1ccco1)C2 (stereo not given) — outcome?
Given back: active

Asked: Assay result, entry O=S1(=O)Nc2c(ccc3cccnc23)-c2ccccc21 — outcome?
Given back: inactive

Asked: Assay result, entry COc1ccc(C2Nc3ccccc3C(=O)N2C2CCCC2)cc1COc1ccc(NC(C)=O)cc1 (stereo not given) — outcome?
Given back: active

Asked: Assay result, entry CN(c1ccccc1)c1ccc(CNc2nn3c(=O)c4ccccc4nc3s2)cc1 — outcome?
Given back: active

Asked: Assay result, entry Cc1csc(CNc2ncnc3cc(-c4ccc5c(c4)OCO5)ccc23)n1 — outcome?
Given back: active

Asked: Assay result, entry NC(=O)C1CCN(c2nc(-c3cc4ccccc4o3)cs2)CC1 — outcome?
Given back: active

Asked: Assay result, entry CN1CCN(c2ccc(Nc3nn4c(=O)c5ccccc5nc4s3)cc2)CC1 — outcome?
Given back: active
